The origin of these recorded values is ChEMBL document CHEMBL1147637.

Would you mind telling me the reported Ki of each entry?
- target entity: Interstitial collagenase (Homo sapiens, UniProt P03956)
- Sequence (P03956 whole entry): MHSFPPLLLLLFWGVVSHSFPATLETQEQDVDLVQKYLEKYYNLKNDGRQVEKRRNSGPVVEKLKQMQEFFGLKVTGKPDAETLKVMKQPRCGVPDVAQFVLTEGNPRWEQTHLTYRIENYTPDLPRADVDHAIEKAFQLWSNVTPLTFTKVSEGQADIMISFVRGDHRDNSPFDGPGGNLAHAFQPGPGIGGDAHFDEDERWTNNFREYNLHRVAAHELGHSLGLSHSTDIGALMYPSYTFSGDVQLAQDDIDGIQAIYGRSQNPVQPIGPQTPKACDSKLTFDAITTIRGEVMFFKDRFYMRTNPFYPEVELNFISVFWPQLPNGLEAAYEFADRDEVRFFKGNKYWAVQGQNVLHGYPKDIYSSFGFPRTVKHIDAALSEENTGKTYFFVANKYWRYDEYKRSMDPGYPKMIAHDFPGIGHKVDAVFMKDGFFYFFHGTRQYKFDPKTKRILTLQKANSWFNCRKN
- test description: Inhibition of recombinant human matrix metalloprotease-1
Report only the number, with the unit nM understood.

The compound listed as CC#CCOc1ccc(S(=O)(=O)N2C[C@@H](O)[C@@H](O)[C@H](O)[C@@H]2C(=O)NO)cc1 shows Ki equal to 128

The compound listed as CC#CCOc1ccc(S(=O)(=O)N2C[C@@H](O)[C@@H](O)[C@H](OC)[C@@H]2C(=O)NO)cc1 shows Ki equal to 90

The compound listed as CC#CCOc1ccc(S(=O)(=O)N2C[C@H]3OC(C)(C)O[C@H]3[C@H](OC)[C@@H]2C(=O)NO)cc1 shows Ki equal to 552
